Each entry below carries its recorded pKi.
molecular target: Aurora kinase B (Homo sapiens); experiment: Inhibition of Aurora-B
Sequence (Q96GD4 whole entry): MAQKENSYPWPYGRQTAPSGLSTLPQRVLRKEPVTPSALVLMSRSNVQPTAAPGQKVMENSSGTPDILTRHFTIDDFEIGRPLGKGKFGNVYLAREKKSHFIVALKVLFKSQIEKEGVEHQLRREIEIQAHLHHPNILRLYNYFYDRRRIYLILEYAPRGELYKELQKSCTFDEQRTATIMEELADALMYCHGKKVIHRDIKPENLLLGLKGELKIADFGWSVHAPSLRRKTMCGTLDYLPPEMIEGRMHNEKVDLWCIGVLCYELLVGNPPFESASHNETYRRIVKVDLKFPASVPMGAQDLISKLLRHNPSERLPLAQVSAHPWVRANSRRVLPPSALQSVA
pKi: −log10 of the molar value.

For orientation, consider the following solved cases.
>  <smiles_record>
Cc1cc(Nc2nc(Sc3c(Cl)cccc3Cl)nc3ccccc23)n[nH]1

>  <pKi>
< 5.96

$$$$
>  <smiles_record>
Cc1cc(Nc2nc(Sc3ccc4ccccc4c3)nc3ccccc23)n[nH]1

>  <pKi>
< 7.40

$$$$
>  <smiles_record>
Cc1cc(Nc2nc(Sc3ccc(Cl)c(Cl)c3)nc3ccccc23)n[nH]1

>  <pKi>
< 7.40

$$$$
>  <smiles_record>
CC(=O)Nc1ccc(Sc2nc(Nc3cc[nH]n3)c3ccccc3n2)cc1

>  <pKi>
< 5.96

$$$$

Then this compound:
Lookup: pKi / Aurora kinase B (Homo sapiens) / Cc1cc(Nc2nc(Sc3ccc(Cl)cc3)nc3ccccc23)n[nH]1
< 5.96
